# System: Puccinia recondita
# method_notes: Use Example 4: preventative control of brown rust on wheat (PUCCRT P7)
# Format: in vivo
# experimental_conditions: inoculated seven days after spraying, 4 ppm, % diseased leaf area
observation_type: % PUCCRT Disease level P7 at 4 ppm (%)
Just the number in %, nothing appended.

In: May I ask what % PUCCRT Disease level P7 at 4 ppm has been recorded for `COC/C(=N\OCc1c(Cl)cccc1/C(=N\OC)C(=O)OC)c1ccc(Cl)c(Cl)c1` ?
Out: 40

In: Item `COC/C(=N\OCc1c(Cl)cccc1/C(=N\OC)C(=O)OC)c1c(F)cc(F)cc1F` has what recorded % PUCCRT Disease level P7 at 4 ppm?
Out: 57

In: Please look up its % PUCCRT Disease level P7 at 4 ppm: `CCOC/C(=N\OCc1c(Cl)cccc1/C(=N\OC)C(=O)NC)c1ccc(F)cc1`
Out: 63

In: Given the compound `COC/C(=N\OCc1c(Cl)cccc1/C(=N\OC)C(=O)OC)c1ccc(Cl)cc1` , what is its reported % PUCCRT Disease level P7 at 4 ppm?
Out: 48

In: Need % PUCCRT Disease level P7 at 4 ppm, item `CO/C=C(/C(=O)OC)c1cccc(Cl)c1CO/N=C(\COC)c1ccc(F)c(F)c1F`
Out: 54

In: Sample `CCOC/C(=N\OCc1c(Cl)cccc1/C(=N\OC)C(=O)OC)c1ccccc1` — what was its % PUCCRT Disease level P7 at 4 ppm?
Out: 87

In: So what's the measured % PUCCRT Disease level P7 at 4 ppm for this one? `CNC(=O)/C(=N/OC)c1cccc(Cl)c1CO/N=C(\COC)c1ccc(Cl)cc1`
Out: 6

In: Endpoint output: % PUCCRT Disease level P7 at 4 ppm of `CNC(=O)/C(=N/OC)c1cccc(Cl)c1CO/N=C(\COC)c1cccc(F)c1` . Value?
Out: 23

In: Form field: reported % PUCCRT Disease level P7 at 4 ppm of `CCOC/C(=N\OCc1c(Cl)cccc1/C(=N\OC)C(=O)OC)c1cccc(F)c1`
Out: 62

In: Request the reported % PUCCRT Disease level P7 at 4 ppm associated with `CCOCC(=NOCc1c(Cl)cccc1C(=COC)C(=O)OC)c1ccccc1F`
Out: 80

In: Endpoint output: % PUCCRT Disease level P7 at 4 ppm of `CO/C=C(/C(=O)OC)c1cccc(Br)c1CO/N=C(\COC)c1c(F)cc(F)cc1F` . Value?
Out: 57

In: Name the reported % PUCCRT Disease level P7 at 4 ppm value associated with the compound `CNC(=O)/C(=N/OC)c1cccc(Cl)c1CO/N=C(\COC)c1cccc(C#N)c1`
Out: 14

In: Need % PUCCRT Disease level P7 at 4 ppm of `CO/C=C(/C(=O)OC)c1cccc(Cl)c1CO/N=C(\COC)c1cccc(C#N)c1` , thanks.
Out: 15

In: Given `CNC(=O)/C(=N/OC)c1cccc(Cl)c1CO/N=C(\COC)c1cccc(OC)c1` , state its recorded % PUCCRT Disease level P7 at 4 ppm.
Out: 13

In: Any idea what % PUCCRT Disease level P7 at 4 ppm was measured for `COC/C(=N\OCc1c(Cl)cccc1/C(=N\OC)C(=O)OC)c1cccc(F)c1` ?
Out: 35

In: % PUCCRT Disease level P7 at 4 ppm for `CNC(=O)/C(=N/OC)c1cccc(Cl)c1CO/N=C(\COC)c1ccccc1Cl` ?
Out: 70

In: Given `CCOCC(=NOCc1c(Cl)cccc1C(=COC)C(=O)OC)c1ccccc1` , state its recorded % PUCCRT Disease level P7 at 4 ppm.
Out: 75
